TEST_PROTOCOL: Human HepG2 cell viability assay in 384 well format
Assay type: toxicity, cell-based
Design: dose 125 nL, time 70.5 hour; concentration not given beside the values
DETAILS: HepG2 cells, read-out: Inhibition
// cytotoxicity at 70.5 h lookup, one value per entry
MEASURED_PARAMETER: cytotoxicity at 70.5 h (%)

[[record]]
compound = "Cc1ccc2c(c1)CN(C(=O)C1CCCCC1)C(CN(C)C)CO2 (configuration not stated)"
unit_abbrev = "%"
value_reported = 0.565

[[record]]
compound = "OC1(CN(Cc2cccnc2)C2CCCCC2)CNCCOC1 (configuration not stated)"
unit_abbrev = "%"
value_reported = -2.72

[[record]]
compound = "O=C(c1cc2c(s1)CCC2)N1CCC(c2cnccn2)CC1"
unit_abbrev = "%"
value_reported = -6.29

[[record]]
compound = "Cc1cc(=O)n(C)cc1NC(=O)Cc1cccc(F)c1"
unit_abbrev = "%"
value_reported = -2.92

[[record]]
compound = "O=C(NCc1cc[nH]n1)NCC(O)c1ccc(F)c(F)c1 (configuration not stated)"
unit_abbrev = "%"
value_reported = 1.18

[[record]]
compound = "O=S(=O)(CCCn1cncn1)Cc1ccccc1Cl"
unit_abbrev = "%"
value_reported = -6.92

[[record]]
compound = "CCS(=O)(=O)NCCN(CCO)C1CCc2ccccc21 (configuration not stated)"
unit_abbrev = "%"
value_reported = -58.4

[[record]]
compound = "Cc1cc2c(=O)n3c(nc2s1)CCN(C(=O)c1c(C)noc1C)CC3"
unit_abbrev = "%"
value_reported = -3.89

[[record]]
compound = "C[C@@H]1C[C@H](C(F)(F)F)n2nc(C3CCN(S(C)(=O)=O)CC3)cc2N1"
unit_abbrev = "%"
value_reported = -2.94

[[record]]
compound = "CN(CCn1ccc2ccccc21)C(=O)Cc1n[nH]c(=O)[nH]1"
unit_abbrev = "%"
value_reported = 1.76

[[record]]
compound = "CS(=O)(=O)N1CCC(c2ccncn2)CC1"
unit_abbrev = "%"
value_reported = -10.9

[[record]]
compound = "Cc1nn(C)cc1CN(C)C(=O)c1cnccn1"
unit_abbrev = "%"
value_reported = 1.11

